- Test system: Caco-2 cells
- setup conditions: human (Caco-2), mouse (RAW 264.7)
Marks after values point to notes of the source that are not given here.
measured parameter: transepithelial transport, Basolateral Medium

| compound | observed value |
| --- | --- |
| COc1cc(C2Oc3cc([C@H]4Oc5cc(O)cc(O)c5C(=O)[C@@H]4O)ccc3OC2CO)ccc1O (some centres unmarked) [Silibinin, silibinin, reference compound] | 23.24 ± 1.79^de % |
| CC(C)[C@H]1C(=O)O[C@H](C(C)C)C(=O)N(C)[C@@H](C(C)C)C(=O)O[C@H](C(C)C)C(=O)N(C)[C@@H](C(C)C)C(=O)O[C@H](C(C)C)C(=O)N1C [ENN-B, enniatin B] | 25.49 ± 4.31^e % |
| CC[C@H](C)[C@H]1C(=O)O[C@H](C(C)C)C(=O)N(C)[C@@H](C(C)C)C(=O)O[C@H](C(C)C)C(=O)N(C)[C@@H](C(C)C)C(=O)O[C@H](C(C)C)C(=O)N1C [ENN-B1, enniatin B1] | 28.16 ± 3.37^e % |
| COc1c(C)c2c(c(O)c1C/C=C(\C)CCC(=O)O)C(=O)OC2 [MPA, mycophenolic acid, reference compound] | 39.77 ± 0.52^f % |
| CC(=O)OC[C@]12C[C@H](OC(=O)CC(C)C)C(C)=C[C@H]1O[C@@H]1[C@H](O)[C@@H](O)[C@@]2(C)[C@]12CO2 [HT-2, HT-2 toxin] | 49.18 ± 1.80^g % |
| CC1=C[C@H]2O[C@@H]3[C@H](O)C[C@](C)([C@@]2(CO)[C@H](O)C1=O)[C@]31CO1 [DON, deoxynivalenol] | 21.48 ± 0.91^cde % |
| C[C@H]1CCCC(=O)CCC/C=C/c2cc(O)cc(O)c2C(=O)O1 [ZEA, zearalenone] | 54.24 ± 2.38^gh % |
| Cc1cc(O)cc2oc(=O)c3c(O)cc(O)cc3c12 [AOH, alternariol] | 59.97 ± 2.86^h % |

meta.source: paper PMC7150870
